- protocol text: Volume of distribution at steady state in Fischer 344 rat at 3 mg/kg, iv
- Type: ADME, organism-based
- Parameters: dose 3 mg/kg, route intravenous
- measurement conditions: in vivo, read-out: Vdss

{"columns": ["mol", "Vd"],
 "data": [
  ["CCN(CC)c1ccc(OC)c2nc(-c3c(OC)cc(COC)cc3OC)c(C)cc12", "2.15 L/kg"]
]}

* * *

# Lookup of reported solubility keyed by entry
- protocol text: Aqueous solubility of the compound in Dulbecco's phosphate-buffered saline at pH 7.4 by high-throughput HPLC method
- Assay type: physicochemical

{"columns": ["mol", "bound sign", "solubility / µM"],
 "data": [
  ["CCN(CC)c1ccc(C)c2nc(-c3c(OC)cc(COC)cc3OC)c(Cl)cc12", "<", 0.2],
  ["CCN(CC)c1ccc(OC)c2nc(-c3c(OC)cc(COC)cc3OC)c(Cl)cc12", "=", 1.9],
  ["CCN(CC)c1ccc(C(F)(F)F)c2nc(-c3c(OC)cc(COC)cc3OC)c(C)cc12", "<", 0.2],
  ["CCc1cc2c(N(CC)CC)ccc(OC)c2nc1-c1c(OC)cc(COC)cc1OC", "=", 12.1],
  ["CCCN(CCC)c1ccc(C)c2nc(-c3c(OC)cc(COC)cc3OC)c(C)cc12", "=", 2],
  ["CCN(CC)c1ccc(OC)c2nc(-c3c(OC)cc(COC)cc3OC)ccc12", "=", 38.2],
  ["CCN(CC)c1ccc(C)c2nc(-c3c(OC)cc(COC)cc3OC)c(F)cc12", "<", 0.2],
  ["CCN(CC)c1ccc(OC)c2nc(-c3c(OC)cc(COC)cc3OC)c(C)cc12", "=", 74],
  ["COCCN(CC(C)C)c1ccc(OC)c2nc(-c3c(OC)cc(COC)cc3OC)c(C)cc12", "=", 8.7],
  ["CCN(CCOC)c1ccc(C)c2nc(-c3c(OC)cc(COC)cc3OC)c(C)cc12", "=", 7.2],
  ["CCN(CC)c1ccc(C#N)c2nc(-c3c(OC)cc(COC)cc3OC)c(C)cc12", "=", 3.2],
  ["CCN(CC)c1ccc(OC)c2nc(-c3c(OC)cc(C#N)cc3OC)c(C)cc12", "=", 11],
  ["CCN(CC)c1ccc(C)c2nc(-c3c(OC)cc(COC)cc3OC)ccc12", "<", 0.2],
  ["CCN(CC)c1ccc(OC)c2nc(-c3c(OC)cc(COC)cc3OC)c(F)cc12", "=", 4.6],
  ["CCCN(CCC)c1ccc(OC)c2nc(-c3c(OC)cc(COC)cc3OC)c(C)cc12", "<", 0.2],
  ["CCN(CCOC)c1ccc(OC)c2nc(-c3c(OC)cc(COC)cc3OC)c(C)cc12", "=", 89.4],
  ["CCN(CC)c1ccc(Cl)c2nc(-c3c(OC)cc(COC)cc3OC)c(C)cc12", "<", 0.2],
  ["CCN(CC)c1ccc(C(F)F)c2nc(-c3c(OC)cc(COC)cc3OC)c(C)cc12", "<", 0.2],
  ["CCN(CC)c1ccc(F)c2nc(-c3c(OC)cc(COC)cc3OC)c(C)cc12", "=", 10.5],
  ["CCN(CC)c1ccc(COC)c2nc(-c3c(OC)cc(COC)cc3OC)c(C)cc12", "=", 2.9],
  ["CCN(CC)c1ccc(C)c2nc(-c3c(OC)cc(COC)cc3OC)c(C)cc12", "=", 1.7],
  ["CCN(CC)c1ccc(OC)c2nc(-c3c(OC)cc(C)cc3OC)c(C)cc12", "=", 17.3],
  ["CCN(CC)c1ccc(OC)c2nc(-c3c(Cl)cc(COC)cc3OC)c(C)cc12", "=", 3.7]
]}

* * *

- study system: Corticotropin-releasing factor receptor 1 (Homo sapiens)
- protocol text: Antagonist activity at human CRF1 receptor expressed in HEK293 cells assessed as inhibition of CRF-induced intracellular cAMP production preincubated for 30 mins before CRF addition measured after 30 mins by enzyme immunoassay
- Type: functional, cell-based
pIC50: −log10 of the molar value.
# Lookup of reported pIC50 keyed by entry
quantity measured: pIC50

{"columns": ["mol", "quantity measured", "value measured"],
 "data": [
  ["CCN(CC)c1ccc(OC)c2nc(-c3c(OC)cc(COC)cc3OC)c(C)cc12", "pIC50", 7.04],
  ["CCN(CC)c1ccc(OC)c2nc(-c3c(OC)cc(COC)cc3OC)ccc12", "pIC50", 6.48],
  ["CCc1cc2c(N(CC)CC)ccc(OC)c2nc1-c1c(OC)cc(COC)cc1OC", "pIC50", 7.49],
  ["CCN(CC)c1ccc(C(F)(F)F)c2nc(-c3c(OC)cc(COC)cc3OC)c(C)cc12", "pIC50", 6.59],
  ["CCN(CC)c1ccc(OC)c2nc(-c3c(OC)cc(COC)cc3OC)c(Cl)cc12", "pIC50", 7.24]
]}

* * *

# Lookup of reported solubility keyed by entry
- protocol text: Solubility of the compound in Britton-Robinson buffer at pH 5 by high-throughput HPLC method
- Assay type: physicochemical

{"columns": ["mol", "solubility / µM"],
 "data": [
  ["CCN(CC)c1ccc(C)c2nc(-c3c(OC)cc(COC)cc3OC)c(C)cc12", 22],
  ["CCN(CC)c1ccc(C#N)c2nc(-c3c(OC)cc(COC)cc3OC)c(C)cc12", 2.1],
  ["CCN(CC)c1ccc(OC)c2nc(-c3c(OC)cc(COC)cc3OC)c(C)cc12", 98.2]
]}

* * *

- protocol text: Cmax in Fischer 344 rat at 10 mg/kg, po
- Type: ADME, organism-based
- Set-up: dose 10 mg/kg, route oral
- measurement conditions: in vivo

{"columns": ["mol", "Cmax [ng/mL]"],
 "data": [
  ["CCN(CC)c1ccc(OC)c2nc(-c3c(OC)cc(COC)cc3OC)c(C)cc12", 305]
]}

* * *

- study system: Corticotropin-releasing factor receptor 1 (Homo sapiens, UniProt P34998)
- Sequence (P34998 whole entry): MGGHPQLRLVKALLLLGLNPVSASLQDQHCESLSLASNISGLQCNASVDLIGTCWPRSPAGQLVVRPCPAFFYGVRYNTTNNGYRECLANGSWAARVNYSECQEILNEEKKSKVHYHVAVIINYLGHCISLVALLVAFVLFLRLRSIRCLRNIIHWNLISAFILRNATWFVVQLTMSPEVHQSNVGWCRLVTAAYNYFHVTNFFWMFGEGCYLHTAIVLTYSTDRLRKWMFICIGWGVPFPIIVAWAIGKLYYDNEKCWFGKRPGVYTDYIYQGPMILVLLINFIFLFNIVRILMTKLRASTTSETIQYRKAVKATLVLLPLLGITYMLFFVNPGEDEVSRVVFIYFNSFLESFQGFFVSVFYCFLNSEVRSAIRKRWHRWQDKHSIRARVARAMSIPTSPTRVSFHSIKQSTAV
- protocol text: Antagonist activity at human CRF1 receptor expressed in HEK293 cells assessed as inhibition of CRF-induced intracellular cAMP production preincubated for 30 mins before CRF addition measured after 30 mins by enzyme immunoassay
- Format: functional, cell-based
API: label(entry) gives criterion met if the entry's IC50 is strictly smaller than 0.07 µM; on equality or larger values it gives criterion not met.

{"columns": ["mol", "group label"],
 "data": [
  ["CCN(CC)c1ccc(OC)c2nc(-c3c(OC)cc(COC)cc3OC)c(F)cc12", "criterion not met"],
  ["CCN(CC)c1ccc(OC)c2nc(-c3c(Cl)cc(COC)cc3OC)c(C)cc12", "criterion met"],
  ["CCN(CC)c1ccc(OC)c2nc(-c3c(OC)cc(C)cc3OC)c(C)cc12", "criterion met"],
  ["CCCN(CCC)c1ccc(OC)c2nc(-c3c(OC)cc(COC)cc3OC)c(C)cc12", "criterion not met"],
  ["CCN(CC)c1ccc(C#N)c2nc(-c3c(OC)cc(COC)cc3OC)c(C)cc12", "criterion met"]
]}

* * *

- protocol text: Solubility of the compound in HCl/NaCl at pH 1.2 by high-throughput HPLC method
- Assay type: physicochemical
- measurement conditions: HCl/NaCl solution

{"columns": ["mol", "solubility"],
 "data": [
  ["CCN(CC)c1ccc(OC)c2nc(-c3c(OC)cc(COC)cc3OC)c(C)cc12", "> 100 µM"],
  ["CCN(CC)c1ccc(C)c2nc(-c3c(OC)cc(COC)cc3OC)c(C)cc12", "> 100 µM"],
  ["CCN(CC)c1ccc(C#N)c2nc(-c3c(OC)cc(COC)cc3OC)c(C)cc12", "> 100 µM"]
]}

* * *

- study system: Corticotropin-releasing factor receptor 1 (Homo sapiens, UniProt P34998)
- protocol text: Displacement of [125I]-CRF from human CRF1 receptor expressed in HEK293 cells after 2 hrs by scintillation counting
- Format: cell-based
pIC50: −log10 of the molar value.
# Lookup of reported pIC50 keyed by entry
quantity measured: pIC50

{"columns": ["mol", "quantity measured", "bound sign", "value measured"],
 "data": [
  ["CCN(CC)c1ccc(OC)c2nc(-c3c(OC)cc(COC)cc3OC)c(Cl)cc12", "pIC50", "=", 6.84],
  ["CCN(CC)c1ccc(COC)c2nc(-c3c(OC)cc(COC)cc3OC)c(C)cc12", "pIC50", "<", 6.00],
  ["CCCN(CCC)c1ccc(OC)c2nc(-c3c(OC)cc(COC)cc3OC)c(C)cc12", "pIC50", "=", 6.98],
  ["CCN(CC)c1ccc(OC)c2nc(-c3c(OC)cc(COC)cc3OC)ccc12", "pIC50", "=", 6.69],
  ["CCN(CC)c1ccc(C#N)c2nc(-c3c(OC)cc(COC)cc3OC)c(C)cc12", "pIC50", "=", 6.99]
]}

Source of measurements: ChEMBL document CHEMBL2157982
